The reported measurements were obtained from paper PMC12872464.

# Experimental system: recombinant lectin domain of FimH with FLAG tag (rFimHLD-FLAG), P08191
# Sequence (P08191 22-156): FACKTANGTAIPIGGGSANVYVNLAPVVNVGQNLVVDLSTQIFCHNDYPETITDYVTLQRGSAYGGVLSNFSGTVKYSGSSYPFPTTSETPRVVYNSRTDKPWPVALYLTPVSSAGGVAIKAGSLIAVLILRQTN
# Experimental details: western blot quantification of rFimHLD-FLAG bound to rPPAP-HA
# Experimental conditions: chain shown with the change; n = 3 biological replicates; parent: est. 1.0; read off a plot
Property label: ratio to parent

ratio to parent lookup needed for HA-tagged PPAP recombinant protein, isoform 2 (membrane protein), wild type (rPPAP-HA WT), P15309-2 N94A; N333A (protein) MRAAPLLLARAASLSLGFLFLLFFWLDRSVLAKELKFVTLVFRHGDRSPIDTFPTDPIKESSWPQGFGQLTQLGMEQHYELGEYIRKRYRKFLAESYKHEQVYIRSTDVDRTLMSAMTNLAALFPPEGVSIWNPILLWQPIPVHTVPLSEDQLLYLPFRNCPRFQELESETLKSEEFQKRLHPYKDFIATLGKLSGLHGQDLFGIWSKVYDPLYCESVHNFTLPSWATEDTMTKLRELSELSLLSLYGIHKQKEKSRLQGGVLVNEILNHMKRATQIPSYKKLIMYSAHDTTVSGLQMALDVYNGLLPPYASCHLTELYFEKGEYFVEMYYRAETQHEPYPLMLPGCSPSCPLERFAELVGPVIPQDWSTECMTTNSHQGTEDSTD , thanks.
0.5

Requested field: ratio to parent. Item: HA-tagged PPAP recombinant protein, isoform 2 (membrane protein), wild type (rPPAP-HA WT), P15309-2 N220A; N333A (protein) KELKFVTLVFRHGDRSPIDTFPTDPIKESSWPQGFGQLTQLGMEQHYELGEYIRKRYRKFLNESYKHEQVYIRSTDVDRTLMSAMTNLAALFPPEGVSIWNPILLWQPIPVHTVPLSEDQLLYLPFRNCPRFQELESETLKSEEFQKRLHPYKDFIATLGKLSGLHGQDLFGIWSKVYDPLYCESVHAFTLPSWATEDTMTKLRELSELSLLSLYGIHKQKEKSRLQGGVLVNEILNHMKRATQIPSYKKLIMYSAHDTTVSGLQMALDVYNGLLPPYASCHLTELYFEKGEYFVEMYYRAETQHEPYPLMLPGCSPSCPLERFAELVGPVIPQDWSTECMTTNSHQVLKVIFAVAFCLISAVLMVLLFIHIRRGLCWQRESYGNI
0.25

Given the entry HA-tagged PPAP recombinant protein, isoform 2 (membrane protein), wild type (rPPAP-HA WT), P15309-2 N94A; N220A (protein) MRAAPLLLARAASLSLGFLFLLFFWLDRSVLAKELKFVTLVFRHGDRSPIDTFPTDPIKESSWPQGFGQLTQLGMEQHYELGEYIRKRYRKFLAESYKHEQVYIRSTDVDRTLMSAMTNLAALFPPEGVSIWNPILLWQPIPVHTVPLSEDQLLYLPFRNCPRFQELESETLKSEEFQKRLHPYKDFIATLGKLSGLHGQDLFGIWSKVYDPLYCESVHAFTLPSWATEDTMTKLRELSELSLLSLYGIHKQKEKSRLQGGVLVNEILNHMKRATQIPSYKKLIMYSAHDTTVSGLQMALDVYNGLLPPYASCHLTELYFEKGEYFVEMYYRNETQHEPYPLMLPGCSPSCPLERFAELVGPVIPQDWSTECMTTNSHQGTEDSTD , report its measured ratio to parent.
0.53

Can you share its ratio to parent? I mean this binder: HA-tagged PPAP recombinant protein, isoform 2 (membrane protein), wild type (rPPAP-HA WT), P15309-2 N94A; N220A; N333A (protein) KELKFVTLVFRHGDRSPIDTFPTDPIKESSWPQGFGQLTQLGMEQHYELGEYIRKRYRKFLAESYKHEQVYIRSTDVDRTLMSAMTNLAALFPPEGVSIWNPILLWQPIPVHTVPLSEDQLLYLPFRNCPRFQELESETLKSEEFQKRLHPYKDFIATLGKLSGLHGQDLFGIWSKVYDPLYCESVHAFTLPSWATEDTMTKLRELSELSLLSLYGIHKQKEKSRLQGGVLVNEILNHMKRATQIPSYKKLIMYSAHDTTVSGLQMALDVYNGLLPPYASCHLTELYFEKGEYFVEMYYRAETQHEPYPLMLPGCSPSCPLERFAELVGPVIPQDWSTECMTTNSHQVLKVIFAVAFCLISAVLMVLLFIHIRRGLCWQRESYGNI
0.36
